target: NPA2 (influenza A virus A/WSN/1933(H1N1), UniProt A4U6V6 1-489); assay: ELISA on recombinant NP
Sequence (A4U6V6 1-489 limits assumed): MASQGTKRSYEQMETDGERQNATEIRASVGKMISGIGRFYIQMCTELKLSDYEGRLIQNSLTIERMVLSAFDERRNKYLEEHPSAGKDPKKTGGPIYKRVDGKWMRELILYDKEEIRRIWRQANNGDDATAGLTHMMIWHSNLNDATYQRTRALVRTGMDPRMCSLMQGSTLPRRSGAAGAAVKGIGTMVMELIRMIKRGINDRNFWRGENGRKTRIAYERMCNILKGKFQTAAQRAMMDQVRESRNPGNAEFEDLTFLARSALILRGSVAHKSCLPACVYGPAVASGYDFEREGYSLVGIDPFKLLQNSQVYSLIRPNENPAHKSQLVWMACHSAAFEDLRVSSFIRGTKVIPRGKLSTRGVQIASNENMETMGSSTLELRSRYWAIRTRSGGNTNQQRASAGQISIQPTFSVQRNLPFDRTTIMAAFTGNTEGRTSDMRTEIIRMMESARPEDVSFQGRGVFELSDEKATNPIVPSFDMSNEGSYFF
Reported EC50 by item:
endpoint name: EC50 (nM)

binder	endpoint name	value observed
NP7 (antibody, V domains shown) VH: EVQLVESGGGLVQPGGSLRLSCAASGFTISNGGIHWVRQAPGKGLEWVAGIGPYGGFTSYADSVKGRFTISADTSKNTAYLQMNSLRAEDTAVYYCARFYSNYYGYHGVMDYWGQGTLVTVSS VL: DIQMTQSPSSLSASVGDRVTITCRASQDVFGWVAWYQQKPGKAPKLLISYSASLYSGVPSRFSGSGSGTDFTLTISSLQPEDFATYYCQQYFNYPLTFGQGTKVEIKR	EC50	0.79
NP11 (antibody, V domains shown) VH: EVQLVESGGGLVQPGGSLRLSCAASGFTIDSYGIHWVRQAPGKGLEWVAWIGPSGGSTFYADSVKGRFTISADTSKNTAYLQMNSLRAEDTAVYYCARGYFWFFDYWGQGTLVTVSS VL: DIQMTQSPSSLSASVGDRVTITCRASQDVSSWVAWYQQKPGKAPKLLISWSGYLYSGVPSRFSGSGSGTDFTLTISSLQPEDFATYYCQQGFNYPLTFGQGTKVEIKR	EC50	0.27
NP14 (antibody, V domains shown) VH: EVQLVESGGGLVQPGGSLRLSCAASGFTIDNGGIHWVRQAPGKGLEWVASIWPSWGSTSYADSVKGRFTISADTSKNTAYLQMNSLRAEDTAVYYCARFNFGVFGVMDYWGQGTLVTVSS VL: DIQMTQSPSSLSASVGDRVTITCRASQDVDNDVAWYQQKPGKAPKLLIYGPRGLYSGVPSRFSGSGSGTDFTLTISSLQPEDFATYYCQQYSSWPLTFGQGTKVEIKR	EC50	0.08
